- subject-of-test: T1, hCD137 (FXa digested) (human, UniProt Q07011 24-186)
- T1 construct: Factor Xa digestion and Protein A removed the Fc; also called human CD137 extracellular domain
- test: SPR, 100 uM ATP
measured-metric: binding amount (RU)

binder | experimental-result
dBBAT037-P253 (antibody, human IgG1, lambda, V domains shown) VH: EVQLVESGGDLVKPGGGLRLSCAASGFTFSGYTMNWVRQAPGKGLEWVSSISSRSNYIDYADSVKGRFTISRDNAKNSLYLQMNSLRAEDTAVYYCARFGLKNSLNWVFDYWGQGTLVTVSS VL: QSALTQPPSASGSPGQTVTISCTGTSTDVGFYNYVSWYQQHPGKAPKLMIYETSKRPSGVPDRFSGSKSGNTASLTVSGLQAEDEADYFCSSYSGASILLFGGGTKLTVLG | 15.9
dBBAT122-P253 (antibody, human IgG1, lambda, V domains shown) VH: EVQLVESGGDLVKPGGGLRLSCAASGFTFSTYTMNWVRQAPGKGLEWVSSISSRSNYKFYADSVKGRFTISRDNAKNSLYLQMNSLRAEDTAVYYCARFGGKNNMNWVFDYWGQGTLVTVSS VL: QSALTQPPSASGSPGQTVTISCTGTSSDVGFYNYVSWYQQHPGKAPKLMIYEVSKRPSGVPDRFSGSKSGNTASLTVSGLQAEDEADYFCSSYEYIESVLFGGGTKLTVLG | 4.7
dBBAT119-P253 (antibody, human IgG1, lambda, V domains shown, also called dBBAT119H-P253/dBBAT119L-LamLib) VH: EVQLVESGGDLVKPGGGLRLSCAASGFTFSTFTMNWVRQAPGKGLEWVSSISSRSNYKSYADSVKGRFTISRDNAKNSLYLQMNSLRAEDTAVYYCARYGAKNFMNWVFDYWGQGTLVTVSS VL: QSALTQPPSASGSPGQTVTISCTGTSTDVGFYNYVSWYQQHPGKAPKLMIYYTSKRPSGVPDRFSGSKSGNTASLTVSGLQAEDEADYFCSSYRYDHQVSFGGGTKLTVLG | 12.9
dBBAT021-P253 (antibody, human IgG1, lambda, V domains shown) VH: EVQLVESGGDLVKPGGGLRLSCAASGFTFSSYTMNWVRQAPGKGLEWVSSISSRSNYRDYADSVKGRFTISRDNAKNSLYLQMNSLRAEDTAVYYCARYGGKNILNWVFDYWGQGTLVTVSS VL: QSALTQPPSASGSPGQTVTISCTGTSSDVGFYNYVSWYQQHPGKAPKLMIYEVSKRPSGVPDRFSGSKSGNTASLTVSGLQAEDEADYFCSSYSSDTHVGFGGGTKLTVLG | 2.4

Hey, just so you know, these numbers are from patent US20230272099A1.
